Catalogue of gap junctional intercellular communication values
Test system: WB-F344
ASSAY_NAME: gap junctional intercellular communication (dye spread) relative to vehicle control (fraction of control); higher = more gap junction communication (less inhibition)
MEASUREMENT_SETUP: pretreatment: RES+GJIC dysreg.
PARAMETER_MEASURED: gap junctional intercellular communication

COMPOUND	EXPERIMENTAL_VALUE
CCCCCCCCCCCCCC(=O)O[C@@H]1[C@@H](C)[C@@]2(O)[C@@H](C=C(CO)C[C@]3(O)C(=O)C(C)=C[C@@H]23)[C@@H]2C(C)(C)[C@]12OC(C)=O [12-O-tetradecanoylphorbol-13-acetate] (compound abbreviation / co-treatment: TPA, exposure (dose, time): 10 nM, 30 min)	1.05
Cc1cccc2cc3ccccc3cc12 [1-Methylanthracene] (compound abbreviation / co-treatment: 1-MeA, exposure (dose, time): 70 µM, 10 min)	0.818
Oc1c(Cl)c(Cl)c(Cl)c(Cl)c1Cl [Pentachlorophenol] (compound abbreviation / co-treatment: PCP, exposure (dose, time): 50 µM, 10 min)	0.387
O=C(O)C(F)(F)C(F)(F)C(F)(F)C(F)(F)C(F)(F)C(F)(F)C(F)(F)F [Perfluorooctanoic acid] (compound abbreviation / co-treatment: PFOA, exposure (dose, time): 80 µM, 10 min)	0.743
CC(C)C[C@H](NC(=O)[C@H](CC(C)C)NC(=O)[C@H](Cc1ccccc1)NC(=O)[C@@H](N)CO)C(=O)N[C@@H](CCCN=C(N)N)C(=O)N[C@@H](CC(N)=O)C(=O)O [Thrombin receptor activator peptide-6] (compound abbreviation / co-treatment: TRAP-6, exposure (dose, time): 50 µM, 30 min)	0.967
Cl[C@H]1[C@H](Cl)[C@@H](Cl)[C@@H](Cl)[C@H](Cl)[C@H]1Cl [Lindane] (compound abbreviation / co-treatment: Lindane, exposure (dose, time): 60 µM, 25 min)	0.741
Cc1nc2sccn2c(=O)c1CCN1CCC(=C(c2ccccc2)c2ccc(F)cc2)CC1 (compound abbreviation / co-treatment: R59022, exposure (dose, time): 30-50 µM, 10 min)	0.867
O=S(=O)(O)C(F)(F)C(F)(F)C(F)(F)C(F)(F)C(F)(F)C(F)(F)C(F)(F)C(F)(F)F [Perfluorooctanesulfonic acid] (compound abbreviation / co-treatment: PFOSA, exposure (dose, time): 40 µM, 20 min)	0.329
c1cc2ccc3cccc4ccc(c1)c2c34 [Pyrene] (compound abbreviation / co-treatment: Pyr, exposure (dose, time): 70 µM, 10 min)	0.802
O=C(OOC(=O)c1ccccc1)c1ccccc1 [Benzoylperoxide] (compound abbreviation / co-treatment: BzOOH, exposure (dose, time): 200 µM, 15 min)	0.313
c1ccc2c(c1)-c1cccc3cccc-2c13 [Fluoranthene] (compound abbreviation / co-treatment: Fla, exposure (dose, time): 70 µM, 10 min)	0.937
CCCCCCCCCCCC(=O)OCC(O)CO (stereo not given) [1-Monolaurin] (compound abbreviation / co-treatment: Lau, exposure (dose, time): 150 µM, 10 min)	0.245
Clc1cc(Cl)c(-c2cc(Cl)c(Cl)cc2Cl)cc1Cl [2,2',4,4',5,5'-Hexachlorobiphenyl] (compound abbreviation / co-treatment: PCB 153, exposure (dose, time): 50 µM, 30 min)	0.857
CC(C)(OOC(C)(C)c1ccccc1)c1ccccc1 [Dicumylperoxide] (compound abbreviation / co-treatment: DiCuOOH, exposure (dose, time): 50 µM, 15 min)	0.829
CCc1cccc(CC)c1N(COC)C(=O)CCl [Alachlor] (compound abbreviation / co-treatment: Alachlor, exposure (dose, time): 185 µM, 25 min)	0.789

# credit: the supplement of paper PMC4449167
